Tested on: Setaria faberi (SETFA)
PROTOCOL SUMMARY: Post-emergence Test (glasshouse, percentage damage to the plant)
Format: in vivo
CONDITION CONTEXT: post-emergence spray, 1000 g/ha unless otherwise stated, evaluated after 13 days
Description: […]
MEASURED QUANTITY: Post-emergence Test SETFA, percentage damage to the plant (five-point scale)

Check out these entries, answers already filled in.
1. CCn1c(C)c(-c2ccc(OC)c(Cl)c2)c(=O)c(C(=O)O)c1-c1ccc(Cl)c(Cl)c1 [Compound 101] ... 3 (3=41-60%)
2. CCn1c(C)c(-c2ccc(C#N)cc2)c(=O)c(C(=O)O)c1-c1ccc(Cl)c(Cl)n1 [Compound 146] ... 4 (4=61-80%)
3. CCn1c(C)c(-c2ccc(F)cc2C)c(=O)c(C(=O)O)c1-c1ccc(Cl)c(Cl)c1 [Compound 155] ... 4 (4=61-80%)
4. CCn1c(C)c(-c2cc(C)c(OC)c(C)c2)c(=O)c(C(=O)O)c1-c1ccc(Cl)c(Cl)c1 [Compound 71] ... 1 (1=0-20%)
5. CCn1c(C)c(-c2cccc(OC(F)(F)F)c2)c(=O)c(C(=O)O)c1-c1ccc(Cl)c(Cl)c1 [Compound 16] ... 5 (5=81-100%)

QUERY: Which Post-emergence Test SETFA, percentage damage to the plant (five-point scale) reading was recorded for the compound CCn1c(C)c(-c2cccc(OC)c2F)c(=O)c(C(=O)O)c1-c1ccc(Cl)cc1 [Compound 179] ?
RESULT: 3 (3=41-60%)

QUERY: Quick one: CCn1c(C)c(-c2ccc(Cl)cc2)c(=O)c(C(=O)O)c1-c1ccc(Cl)cc1 [Compound 138]
RESULT: 3 (3=41-60%)

QUERY: Quick one: CCn1c(C)c(-c2cc(C)c(F)c(C)c2)c(=O)c(C(=O)O)c1-c1ccc(Cl)cc1 [Compound 173]
RESULT: 2 (2=21-40%)
